ASSAY_SYSTEM: T1, Bzz1-2, P38822
T1 sequence (P38822 568-633, looked up): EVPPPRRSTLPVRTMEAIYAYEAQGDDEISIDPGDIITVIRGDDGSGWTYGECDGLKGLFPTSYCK
PROCEDURE_TEXT: SPOT array
CONDITION_DETAILS: median of control spots 4538
METRIC_NAME: SPOT intensity

Solved cases (3 shown):
{"columns": ["BINDER", "SPOT intensity"],
 "data": [
  ["NIKVLLNPKLGKPVK", 6],
  ["DHPKGPPPPPPPDEK", 12],
  ["LLRRTIPKRPFYHVL", 13]
]}

[1] YHSRRHPLALGFKYV
[2] LSKRLPLRFPEHTSS
[3] FHLNPKRSAVLYDRP
[4] ILARAILTIPRVLDK
[5] HGKRRAPLLLAKLDV
q: With regard to SPOT intensity, arrange the entries in ascending order, please. Lab note: final answer is the ordered label list.
a: 1, 5, 4, 2, 3
(1: 0, 5: 1, 4: 2, 2: 7, 3: 38)

[a] DRIRMFIRFPKFLLE
[b] KKIRLIFTYPSTVGR
q: Hello, I am sorting some records. Could you say if a or b has the smaller SPOT intensity value? Write down the label attached to your selection.
a: a

[a] TEVPIPRRPPPPQAA
[b] PPPPPPPPPPPLPQS
q: Hello, I am sorting some records. Could you say if a or b has the smaller SPOT intensity value? Write down the label attached to your selection.
a: a
(a: 0, b: 5)

[1] LRWRHKFFLPAIAAI
[2] RRSKSLPTTPGIRSG
q: Choose between 1 and 2 : whose measured SPOT intensity value is numerically larger? Write down the label attached to your selection.
a: 2

[P] AAAPKHAPPPVPNET
[Q] RSVKRPRRAPRPVVS
[R] NNNKMRPHLPPLSSG
[S] MAMRPIPPLPTESEY
[T] LKHGWKPLRPIKLIS
q: With regard to SPOT intensity, arrange the entries in ascending order, please. Lab note: final answer is the ordered label list.
a: P, T, S, Q, R
(P: 0, T: 1, S: 2, Q: 3, R: 62)

[a] PHNPSPFFPPPDFND
[b] SSSSSPPPLPTRRDH
[c] FFRRSELYLPNSSKA
q: With regard to SPOT intensity, arrange the entries in ascending order, please. Lab note: final answer is the ordered label list.
a: a, b, c
(a: 0, b: 3, c: 5)

[A] KRNRLKILLPFLEQS
[B] RKRAPTPPAPSRSEK
q: Hello, I am sorting some records. Could you say if A or B has the smaller SPOT intensity value? Write down the label attached to your selection.
a: A
